Source of measurements: ChEMBL document CHEMBL3885861

Species: Rattus norvegicus
assay-protocol: Open TG-GATES - Regimen: Single
Type: toxicity, organism-based, Sprague-Dawley
Design: regimen Single, gender Male, age 6 weeks
experimental-context: in vivo, po, 300 mg/kg, 24 h, tissue Blood, route gavage, dose level Middle
observable: Eos (%)
Answers are plain numbers, in %.

compound | observable | measure-unit | result-value
COC1=CC(=O)C[C@@H](C)[C@]12Oc1c(Cl)c(OC)cc(OC)c1C2=O [GRISEOFULVIN] | Eos | % | 0.8

Please report Eos for every entry that follows.
1. CCOC(=O)CCC(=O)O[C@H]1[C@H](O[C@@H]2[C@@H](C)[C@H](O[C@H]3C[C@@](C)(OC)[C@@H](O)[C@H](C)O3)[C@@H](C)C(=O)O[C@H](CC)[C@@](C)(O)[C@H](O)[C@@H](C)C(=O)[C@H](C)C[C@@]2(C)O)O[C@H](C)C[C@@H]1N(C)C [ERYTHROMYCIN ETHYLSUCCINATE]
2. COc1ccc2[nH]c([S+]([O-])Cc3ncc(C)c(OC)c3C)nc2c1 (centres undefined) [OMEPRAZOLE]
3. NC(N)=Nc1nc(CSCCC(N)=NS(N)(=O)=O)cs1 [FAMOTIDINE]

1. 1
2. 1
3. 1

---

Organism: Rattus norvegicus
assay-protocol: Open TG-GATES - Regimen: Daily Repeat
Type: toxicity, organism-based, Sprague-Dawley
Design: regimen Daily Repeat, gender Male, age 6 weeks
experimental-context: in vivo, po, 100 mg/kg, […], tissue Plasma, route gavage, dose level Low, time 7 day
observable: ALT (IU/L)
Give bare numbers, in IU/L.

Sample records with ALT:
compound | measure-unit | result-value
CCOc1ccc(NC(=O)CC(C)O)cc1 (centres undefined) [BUCETIN] | IU/L | 42.8
NC(N)=Nc1nc(CSCCC(N)=NS(N)(=O)=O)cs1 [FAMOTIDINE] | IU/L | 30.4
CCOC(=O)CCC(=O)O[C@H]1[C@H](O[C@@H]2[C@@H](C)[C@H](O[C@H]3C[C@@](C)(OC)[C@@H](O)[C@H](C)O3)[C@@H](C)C(=O)O[C@H](CC)[C@@](C)(O)[C@H](O)[C@@H](C)C(=O)[C@H](C)C[C@@]2(C)O)O[C@H](C)C[C@@H]1N(C)C [ERYTHROMYCIN ETHYLSUCCINATE] | IU/L | 36.4

# input for lookup
Query: ALT; subject: COC1=CC(=O)C[C@@H](C)[C@]12Oc1c(Cl)c(OC)cc(OC)c1C2=O [GRISEOFULVIN]
36.2

---

Answer each item with its documented PT.
Species on record: Rattus norvegicus
assay-protocol: Open TG-GATES - Regimen: Single
Format: toxicity, organism-based, Sprague-Dawley
Set-up: regimen Single, gender Male, age 6 weeks
experimental-context: in vivo, po, 100 mg/kg, 3 h, tissue Blood, route gavage, dose level High
Give bare numbers, in s.

Sample records with PT:
molecule | PT, s
CC1=C(/C=C/C(C)=C/C=C/C(C)=C/CO)C(C)(C)CCC1 | 15.7
CN(C)CCN(Cc1cccs1)c1ccccn1 | 16.3
CN(C)CCCN1c2ccccc2CCc2ccccc21 | 15.8

# input for lookup
Query: PT; subject: CN(C)CCCN1c2ccccc2CCc2ccc(Cl)cc21
13.5

---

Answer each item with its documented LIVER.
Species: Rattus norvegicus
assay-protocol: Open TG-GATES - Regimen: Single
Type: toxicity, organism-based, Sprague-Dawley
Set-up: regimen Single, gender Male, age 6 weeks
experimental-context: in vivo, po, 300 mg/kg, 24 h, tissue Liver, route gavage, dose level Middle
Give bare numbers, in g.

Please report LIVER for every entry that follows.
1. CCOC(=O)CCC(=O)O[C@H]1[C@H](O[C@@H]2[C@@H](C)[C@H](O[C@H]3C[C@@](C)(OC)[C@@H](O)[C@H](C)O3)[C@@H](C)C(=O)O[C@H](CC)[C@@](C)(O)[C@H](O)[C@@H](C)C(=O)[C@H](C)C[C@@]2(C)O)O[C@H](C)C[C@@H]1N(C)C [ERYTHROMYCIN ETHYLSUCCINATE]
2. COC1=CC(=O)C[C@@H](C)[C@]12Oc1c(Cl)c(OC)cc(OC)c1C2=O
3. NC(N)=Nc1nc(CSCCC(N)=NS(N)(=O)=O)cs1
4. COc1ccc2[nH]c([S+]([O-])Cc3ncc(C)c(OC)c3C)nc2c1 (centres undefined)

9.8
10.9
11
11.8
